Target: EGFR L858R/T790M/C797S (BaF3-LTC cells) (Homo sapiens, UniProt P00533, C797S/L858R/T790M)
Construct: expressed in transfected cells; host or cells: BaF3
Sequence (P00533 25-1210 T790M/C797S/L858R): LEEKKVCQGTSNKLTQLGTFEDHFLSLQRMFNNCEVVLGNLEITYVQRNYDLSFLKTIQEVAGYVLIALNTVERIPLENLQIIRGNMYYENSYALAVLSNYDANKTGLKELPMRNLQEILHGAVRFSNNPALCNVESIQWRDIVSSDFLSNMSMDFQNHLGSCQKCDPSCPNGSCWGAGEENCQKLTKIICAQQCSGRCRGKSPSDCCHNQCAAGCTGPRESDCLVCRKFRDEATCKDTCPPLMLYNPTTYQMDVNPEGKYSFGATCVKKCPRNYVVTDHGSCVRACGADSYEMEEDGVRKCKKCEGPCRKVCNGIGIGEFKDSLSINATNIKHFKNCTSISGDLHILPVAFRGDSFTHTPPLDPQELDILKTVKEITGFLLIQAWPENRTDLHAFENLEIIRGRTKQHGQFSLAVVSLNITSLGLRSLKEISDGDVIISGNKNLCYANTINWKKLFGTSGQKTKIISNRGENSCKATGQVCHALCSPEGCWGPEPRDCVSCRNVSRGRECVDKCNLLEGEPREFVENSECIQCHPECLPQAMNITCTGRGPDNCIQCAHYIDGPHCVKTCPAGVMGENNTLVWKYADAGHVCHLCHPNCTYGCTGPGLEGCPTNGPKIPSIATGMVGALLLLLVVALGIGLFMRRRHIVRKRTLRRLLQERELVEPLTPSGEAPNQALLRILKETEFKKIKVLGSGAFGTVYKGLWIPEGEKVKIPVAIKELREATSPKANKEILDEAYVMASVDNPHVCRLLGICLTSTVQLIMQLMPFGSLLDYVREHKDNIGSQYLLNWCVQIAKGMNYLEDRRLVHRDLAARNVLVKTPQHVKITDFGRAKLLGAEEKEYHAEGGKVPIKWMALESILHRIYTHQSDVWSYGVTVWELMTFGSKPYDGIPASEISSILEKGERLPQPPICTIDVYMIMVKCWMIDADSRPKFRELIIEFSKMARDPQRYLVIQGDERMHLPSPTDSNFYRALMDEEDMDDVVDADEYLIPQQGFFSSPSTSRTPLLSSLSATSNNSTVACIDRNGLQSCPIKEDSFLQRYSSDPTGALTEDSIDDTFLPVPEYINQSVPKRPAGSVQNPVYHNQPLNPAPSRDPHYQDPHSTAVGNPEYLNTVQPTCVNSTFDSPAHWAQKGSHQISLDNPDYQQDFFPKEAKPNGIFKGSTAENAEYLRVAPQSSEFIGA
Experiment: EGFR degradation HTRF assay, BaF3-LTC cells
Type: cell-based
Details: BaF3-LTC cells; maximum percentage of inhibition (degradation); read-out: Dmax (%) BaF3-LTC
Protocol: BaF3 WT(wild type), BaF3-LTC(L858R/T790M/C797S) and BaF3-DTC(Del19/T790M/C797S) cells are treated with compounds diluted in 0.2% DMSO cell culture medium and incubate for 16h, 37° C., 5% CO2, H1975-#36, H1975-#28, H1975-#23 and HCC827 cells are treated with compounds diluted in 0.2% DMSO cell culture medium on day 2, incubate for 16h, 37° C., 5% CO2.the final concentriation of compounds in all assay is start with 10 uM, 5-fold dilution, total 8 doses were included. […]
ASSAY_READOUT: Dmax (%)

CCOc1cc(N2CCC(N3CCN(CC4CN(c5cccc6c5oc(=O)n6C5CCC(=O)NC5=O)C4)CC3)CC2)c(CC)cc1Nc1ncc(Br)c(Nc2ccc3c(=O)n(CC)ncc3c2P(C)(C)=O)n1 (stereo not shown) [Example 645]
95.8
CCc1cc(Nc2ncc(Br)c(Nc3ccc4nc(C)ccc4c3P(C)(C)=O)n2)c(OC)cc1N1CCC(N2CCN(C(=O)[C@H]3CC[C@@H](Oc4cc(F)c(C5CCC(=O)NC5=O)c(F)c4)CC3)CC2)CC1 (stereo partly shown) [Example 681]
96
CCc1cc(Nc2ncc(Br)c(Nc3ccc4c(C)nccc4c3P(C)(C)=O)n2)c(OC)cc1N1CCC(N2CCN(CCc3cc(F)c([C@H]4CCC(=O)NC4=O)c(F)c3)CC2)CC1 [Example 684]
91.4
CCc1ccc2c(P(C)(C)=O)c(Nc3nc(Nc4cc(CC)c(N5CCC(N6CCN(CC7CN(c8cc(F)c(C9CCC(=O)NC9=O)c(F)c8)C7)CC6)CC5)cc4OC)ncc3Br)ccc2n1 (stereo not shown) [Example 508]
89.3
CCOc1cc(N2CCC(N3CCN(CCc4cc(F)c([C@H]5CCC(=O)NC5=O)c(F)c4)CC3)CC2)c(CC)cc1Nc1ncc(Br)c(Nc2cc(F)c3ncc(C)cc3c2P(C)(C)=O)n1 [Example 672]
86.9
CCOc1cc(N2CCC(N3CCN(CC4CN(c5cccc6c5oc(=O)n6C5CCC(=O)NC5=O)C4)CC3)CC2)c(CC)cc1Nc1ncc(Br)c(Nc2cc(F)c3nc(CC)ccc3c2P(C)(C)=O)n1 (stereo not shown) [Example 562]
90.2
CCOc1cc(N2CCC(N3CCN(CCc4cc5oc(=O)n(C6CCC(=O)NC6=O)c5cc4C)CC3)CC2)c(CC)cc1Nc1ncc(Br)c(Nc2ccc3c(=O)n(CC)ncc3c2P(C)(C)=O)n1 (stereo not shown) [Example 554]
91.9
CCOc1cc(N2CCC(N3CCN(CCc4cc(C)cc5c4oc(=O)n5C4CCC(=O)NC4=O)CC3)CC2)c(CC)cc1Nc1ncc(Br)c(Nc2ccc3nc(CC)ccc3c2P(C)(C)=O)n1 (stereo not shown) [Example 469]
90
CCc1cc(Nc2ncc(Br)c(Nc3ccc4nc(C)ccc4c3P(C)(C)=O)n2)c(OC)cc1N1CCC(N2CCN(CC3CN(c4ccc5c(c4)oc(=O)n5C4CCC(=O)NC4=O)C3)CC2)CC1 (stereo not shown) [Example 537]
94
CCc1cc(Nc2ncc(Br)c(Nc3ccc4c(=O)n(C)ncc4c3P(C)(C)=O)n2)c(OC)cc1N1CCC(N2CCN(CCc3ccc4c(c3)oc(=O)n4C3CCC(=O)NC3=O)CC2)CC1 (stereo not shown) [Example 523]
95.9
